Reported Ki against Prothrombin (Homo sapiens, UniProt P00734), gathered from multiple publications, appears below.
With a cut-off of 200 nM, any Ki strictly below it is called criterion met; any Ki meeting it or above is called criterion not met.

{"columns": ["COMPOUND", "CAT"],
 "data": [
  ["CCOc1cc(C(Nc2ccc3c(N)nccc3c2)C(=O)NS(=O)(=O)c2cccc(C(N)=O)c2)ccc1OC(C)C (configuration not stated)", "criterion not met"],
  ["N=C(N)c1ccc(Oc2cc(OCc3ccc(Br)nc3)cc(C(=O)N[C@H]3CC[C@H](N)CC3)c2)cc1", "criterion not met"],
  ["O=S(=O)(Nc1cccc(OCCNc2ccncc2)c1)c1ccc(Cl)cc1", "criterion not met"],
  ["NCCCC[C@H](NC(=O)[C@@H]1CCN2CC[C@@](N)(Cc3ccccc3)CN12)C(=O)C(=O)NCc1ccccc1", "criterion not met"],
  ["CC[C@H](C)[C@@H](NS(=O)(=O)Cc1ccccc1)C(=O)N[C@@H](CCSC)C(=O)NCc1ccc(C(=N)N)cc1", "criterion met"],
  ["N=C(N)NS(=O)(=O)c1ccccc1[N+](=O)[O-]", "criterion not met"],
  ["CN[C@H](Cc1ccccc1)C(=O)N1CCC[C@H]1C(=O)N[C@@H](CCCN=C(N)N)C(=O)c1nc(O)c2ccccc2n1", "criterion met"],
  ["CCOc1ccc(C(Nc2ccc(C(=N)N)cc2)C(=O)NCc2ccccc2)cc1OCC (configuration not stated)", "criterion not met"],
  ["COc1cccc(S(=O)(=O)Nc2cccn(CC(=O)NCc3ccc(C(=N)N)cc3)c2=O)c1", "criterion met"],
  ["N=C(N)NS(=O)(=O)c1ccc(Br)cc1", "criterion not met"],
  ["COc1ccc(-n2nc(Cn3cncn3)c3c2C(=O)N(c2ccc(-c4ccccc4CN4CC[C@@H](O)C4)cc2)CC3)cc1", "criterion not met"],
  ["CC(=N)N1CCC(Oc2ccc3ncn(Cc4ccc5ccc(C(=N)N)cc5c4)c3c2)CC1", "criterion not met"],
  ["CCOc1cc(OC(C)C)c(F)c(C(Nc2ccc(C(=N)N)cc2)c2nc(-c3cccc(OC)c3)c[nH]2)c1 (configuration not stated)", "criterion not met"],
  ["Cc1c(F)c(Oc2cccc(C(=N)N)c2)nc(Oc2cccc(C(=O)C(C)C)c2)c1F", "criterion not met"],
  ["N=C(N)N1CCC[C@@H](C[C@H](NC(=O)CN2C(=O)CN(CCCc3ccccc3)C(=O)[C@H]2Cc2ccccc2Cl)C(=O)c2nccs2)C1", "criterion met"],
  ["COC(=N)NS(=O)(=O)c1ccc([N+](=O)[O-])c(Cl)c1", "criterion met"],
  ["O=C(Cn1c(Cl)cnc(NCC(F)(F)c2cccc[n+]2[O-])c1=O)NCc1ccccc1-n1cncn1", "criterion met"],
  ["N=C(N)c1ccc(Oc2nc(Oc3ccc(C(=N)N)cc3)c(Cl)cc2Cl)cc1", "criterion not met"],
  ["O=C(NCc1cccc(Cl)c1)[C@@H]1CCCN1C(=O)CC1CCCCC1", "criterion not met"],
  ["CC1(C)CNc2c(cccc2S(=O)(=O)NC(Cc2nc(CN)cs2)C(=O)N2CCC(CCO)CC2)C1 (configuration not stated)", "criterion not met"],
  ["COc1ccc2ccc(S(=O)(=O)N[C@H]3CCN(Cc4cc(C(=N)N)ccc4OCC(=O)O)C3=O)cc2c1", "criterion not met"],
  ["Cc1cnc(NCCc2ccc(F)cc2)c(=O)n1CC(=O)NCc1ccc2c(N)noc2c1", "criterion met"]
]}
